tested on: PPARg:RXRa 270nM:90nM, anti-RXR (NR concentration 270 nM, RXRa partner concentration 90 nM); assay: PBM binding z-score (relative to random genomic background probes); higher = stronger binding; sequences stand for … in GC…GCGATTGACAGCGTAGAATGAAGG
Use Criterion met when the recorded PBM binding z-score is no lower than 7; use Criterion not met when it is lower.

Prompt line: Given the entry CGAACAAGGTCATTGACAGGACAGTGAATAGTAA , answer whether its PBM binding z-score meets or surpasses 7.
Response line: Criterion not met

Prompt line: Given the entry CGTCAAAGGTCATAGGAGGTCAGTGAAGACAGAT , answer whether its PBM binding z-score meets or surpasses 7.
Response line: Criterion met

Prompt line: Given the entry CGTCCAAGGTCAAAGGTCATTGAAGAGATGACGG , answer whether its PBM binding z-score meets or surpasses 7.
Response line: Criterion met

Prompt line: Given the entry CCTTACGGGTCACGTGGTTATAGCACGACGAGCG , answer whether its PBM binding z-score meets or surpasses 7.
Response line: Criterion not met

Prompt line: Given the entry ATATGTAGGTTAGGGGTCATTCAGGTTGGTTCGC , answer whether its PBM binding z-score meets or surpasses 7.
Response line: Criterion met

Prompt line: Given the entry AATACAGGGTCATCGTAGGTCAGAGTACGCACAG , answer whether its PBM binding z-score meets or surpasses 7.
Response line: Criterion not met

Prompt line: Given the entry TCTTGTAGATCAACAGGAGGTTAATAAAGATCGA , answer whether its PBM binding z-score meets or surpasses 7.
Response line: Criterion not met

Prompt line: Given the entry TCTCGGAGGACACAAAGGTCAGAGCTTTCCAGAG , answer whether its PBM binding z-score meets or surpasses 7.
Response line: Criterion not met

Prompt line: Given the entry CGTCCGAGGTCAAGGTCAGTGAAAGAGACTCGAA , answer whether its PBM binding z-score meets or surpasses 7.
Response line: Criterion met

Prompt line: Given the entry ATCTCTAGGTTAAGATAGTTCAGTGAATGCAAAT , answer whether its PBM binding z-score meets or surpasses 7.
Response line: Criterion not met

Prompt line: Given the entry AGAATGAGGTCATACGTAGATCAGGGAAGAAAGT , answer whether its PBM binding z-score meets or surpasses 7.
Response line: Criterion met

Prompt line: Given the entry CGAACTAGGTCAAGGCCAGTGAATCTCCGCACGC , answer whether its PBM binding z-score meets or surpasses 7.
Response line: Criterion not met
